test system: COS-7 cells; assay: Automated lipofection screening: GFP-luciferase reporter gene transfer (luciferase activity per protein content); format: cell-based, African green monkey; conditions: pEGFPLuc plasmid, cationic/helper lipid 1:0.5 with cholesterol, at the LDR giving the maximum, point is thousands separator
Please assign not satisfied whenever Maximum transfection efficiency, MW (mean value), Helper lipid: CHOL is at or above 200 RLU, and satisfied whenever it is below.

# SMILES_REPRESENTATION, LABEL_VALUE
rows = [
    ("CCCCCCCCCCCCCCCCCCN(CCCCCCCCCCCCCCCCCC)[C@@H](CO)C(=O)NCCN", "satisfied"),
    ("CCCCCCCCCCCCCC[N+](C)(CCCCCCCCCCCCCC)[C@@H](CO)C(=O)NCCCCCN", "satisfied"),
    ("CCCCCCCCCCCCCCCCN(CCCCCCCCCCCCCCCC)[C@@H](CO)C(=O)NCCCN", "satisfied"),
]

Req: Lab log: compare recorded Maximum transfection efficiency, MW (mean value), Helper lipid: CHOL with 200 RLU; is it strictly lower for `CCCCCCCCCCCCCCCCCCN(CCCCCCCCCCCCCCCCCC)[C@@H](CO)C(=O)NCCCCCN` ?
Resp: satisfied

Req: Item: `CCCCCCCCCCCC[N+](C)(CCCCCCCCCCCC)[C@@H](CO)C(=O)NCCCCCCN`
Resp: not satisfied

Req: Repeat for the following molecule: `CCCCCCCCCCCCCCCC[N+](C)(CCCCCCCCCCCCCCCC)[C@@H](CO)C(=O)NCCCN`
Resp: not satisfied

---

system: COS-7 cells; test: Automated lipofection screening: GFP-luciferase reporter gene transfer (luciferase activity per protein content); type: cell-based, African green monkey; conditions: pEGFPLuc plasmid, cationic/helper lipid 1:0.5 with cholesterol, at the LDR giving the maximum, point is thousands separator
VALUE_TYPE: Maximum transfection efficiency, MW (mean value), Helper lipid: CHOL (RLU)
Value expressed in RLU; do not type the unit.

The following molecules have reported results that may help.
# MOLECULE, TEST_SYSTEM, ENDPOINT_UNIT, REPORTED_RESULT
rows = [
    ("CCCCCCCC/C=C\\CCCCCCCCN(CCCCCCCC/C=C\\CCCCCCCC)[C@@H](CO)C(=O)NCCCCCN [compound 20]", "COS-7 cells", "RLU", 67.308),
    ("CCCCCCCCCCCCCCCCN(CCCCCCCCCCCCCCCC)[C@@H](CO)C(=O)NCCCCCCN [compound 23]", "COS-7 cells", "RLU", 16.398),
    ("CCCCCCCCCCCCCCCCCCN(CCCCCCCCCCCCCCCCCC)[C@@H](CO)C(=O)NCCCCN [compound 14]", "COS-7 cells", "RLU", 42.270),
    ("CCCCCCCCCCCCCCCCN(CCCCCCCCCCCCCCCC)[C@@H](CO)C(=O)NCCCCCN [compound 18]", "COS-7 cells", "RLU", 42.592),
    ("CCCCCCCCCCCCCCCC[N+](C)(CCCCCCCCCCCCCCCC)[C@@H](CO)C(=O)NCCN [compound 28]", "COS-7 cells", "RLU", 461.747),
]

Req: # Maximum transfection efficiency, MW (mean value), Helper lipid: CHOL lookup, item CCCCCCCCCCCCCCCCCC[N+](C)(CCCCCCCCCCCCCCCCCC)[C@@H](CO)C(=O)NCCCCCCN [compound 49]
Resp: 10.245

Req: Entry to check: CCCCCCCCCCCCCC[N+](C)(CCCCCCCCCCCCCC)[C@@H](CO)C(=O)NCCCCCCN [compound 47]
Resp: 56.974

Req: Now try CCCCCCCCCCCCCCN(CCCCCCCCCCCCCC)[C@@H](CO)C(=O)NCCCCCCN [compound 22] .
Resp: 241.264

---

Listed below: Maximum transfection efficiency, MW (mean value), Helper lipid: CHOL values for each entry.
test system: COS-7 cells; assay: Automated lipofection screening: GFP-luciferase reporter gene transfer (luciferase activity per protein content); assay type: cell-based, African green monkey; conditions: pEGFPLuc plasmid, cationic/helper lipid 1:0.5 with cholesterol, at the LDR giving the maximum, point is thousands separator
Write the number in RLU without appending the unit.

Study these solved cases before continuing.
# COMPOUND, TEST_SYSTEM, ENDPOINT_UNIT, REPORTED_RESULT
measured = [
    ("CCCCCCCCCCCCN(CCCCCCCCCCCC)[C@@H](CO)C(=O)NCCCCN [compound 11]", "COS-7 cells", "RLU", 327),
    ("CCCCCCCCCCCCCC[N+](C)(CCCCCCCCCCCCCC)[C@@H](CO)C(=O)NCCCCN [compound 37]", "COS-7 cells", "RLU", 148.560),
    ("CCCCCCCCCCCCCC[N+](C)(CCCCCCCCCCCCCC)[C@@H](CO)C(=O)NCCCN [compound 32]", "COS-7 cells", "RLU", 447.443),
    ("CCCCCCCCCCCCCCN(CCCCCCCCCCCCCC)[C@@H](CO)C(=O)NCCCCCN [compound 17]", "COS-7 cells", "RLU", 237.556),
    ("CCCCCCCC/C=C\\CCCCCCCC[N+](C)(CCCCCCCC/C=C\\CCCCCCCC)[C@@H](CO)C(=O)NCCCCN [compound 40]", "COS-7 cells", "RLU", 119.285),
    ("CCCCCCCCCCCCCCCCCCN(CCCCCCCCCCCCCCCCCC)[C@@H](CO)C(=O)NCCCCCCN [compound 24]", "COS-7 cells", "RLU", 20.328),
    ("CCCCCCCCCCCCCCCC[N+](C)(CCCCCCCCCCCCCCCC)[C@@H](CO)C(=O)NCCCCN [compound 38]", "COS-7 cells", "RLU", 156.698),
    ("CCCCCCCCCCCCCCN(CCCCCCCCCCCCCC)[C@@H](CO)C(=O)NCCCCN [compound 12]", "COS-7 cells", "RLU", 274.483),
    ("CCCCCCCCCCCCCCCCCC[N+](C)(CCCCCCCCCCCCCCCCCC)[C@@H](CO)C(=O)NCCCN [compound 34]", "COS-7 cells", "RLU", 42.068),
    ("CCCCCCCCCCCCCCCC[N+](C)(CCCCCCCCCCCCCCCC)[C@@H](CO)C(=O)NCCCCCCN [compound 48]", "COS-7 cells", "RLU", 96.148),
]

Please turn your attention to the following entry.
Req: Field request: Maximum transfection efficiency, MW (mean value), Helper lipid: CHOL | item: CCCCCCCCCCCC[N+](C)(CCCCCCCCCCCC)[C@@H](CO)C(=O)NCCCCN [compound 36]
Resp: 3.829

---

test system: COS-7 cells; test: Automated lipofection screening: GFP-luciferase reporter gene transfer (luciferase activity per protein content); format: cell-based, African green monkey; settings: pEGFPLuc plasmid, cationic/helper lipid 1:0.5 with cholesterol, at the LDR giving the maximum, point is thousands separator
Values of Maximum transfection efficiency, MW (mean value), Helper lipid: CHOL strictly less than 80 RLU map to yes (1), and values of at least 80 RLU map to no (0).

These recorded examples may help you get a feel for the data.
# SMILES_REPRESENTATION, LABEL_VALUE
rows = [
    ("CCCCCCCC/C=C\\CCCCCCCC[N+](C)(CCCCCCCC/C=C\\CCCCCCCC)[C@@H](CO)C(=O)NCCCCCCN", "yes (1)"),
    ("CCCCCCCCCCCCN(CCCCCCCCCCCC)[C@@H](CO)C(=O)NCCCCCCN", "no (0)"),
    ("CCCCCCCCCCCCCCCCCCN(CCCCCCCCCCCCCCCCCC)[C@@H](CO)C(=O)NCCCN", "yes (1)"),
    ("CCCCCCCCCCCCCCCCCC[N+](C)(CCCCCCCCCCCCCCCCCC)[C@@H](CO)C(=O)NCCN", "no (0)"),
    ("CCCCCCCCCCCCCCCCN(CCCCCCCCCCCCCCCC)[C@@H](CO)C(=O)NCCCCN", "yes (1)"),
    ("CCCCCCCC/C=C\\CCCCCCCC[N+](C)(CCCCCCCC/C=C\\CCCCCCCC)[C@@H](CO)C(=O)NCCCCCN", "yes (1)"),
    ("CCCCCCCCCCCCCCN(CCCCCCCCCCCCCC)[C@@H](CO)C(=O)NCCN", "no (0)"),
    ("CCCCCCCCCCCCN(CCCCCCCCCCCC)[C@@H](CO)C(=O)NCCCN", "no (0)"),
    ("CCCCCCCC/C=C\\CCCCCCCCN(CCCCCCCC/C=C\\CCCCCCCC)[C@@H](CO)C(=O)NCCCCCCN", "yes (1)"),
    ("CCCCCCCC/C=C\\CCCCCCCCN(CCCCCCCC/C=C\\CCCCCCCC)[C@@H](CO)C(=O)NCCCN", "yes (1)"),
]

Req: State whether 80 RLU exceeds Maximum transfection efficiency, MW (mean value), Helper lipid: CHOL recorded for `CCCCCCCCCCCCN(CCCCCCCCCCCC)[C@@H](CO)C(=O)NCCN` .
Resp: no (0)

Req: What would you report for `CCCCCCCCCCCC[N+](C)(CCCCCCCCCCCC)[C@@H](CO)C(=O)NCCN` ?
Resp: yes (1)

Req: Another: `CCCCCCCCCCCC[N+](C)(CCCCCCCCCCCC)[C@@H](CO)C(=O)NCCCCCN`
Resp: no (0)

Req: Also `CCCCCCCCCCCCN(CCCCCCCCCCCC)[C@@H](CO)C(=O)NCCCCCN` , if possible.
Resp: yes (1)

Req: Now consider `CCCCCCCCCCCCCC[N+](C)(CCCCCCCCCCCCCC)[C@@H](CO)C(=O)NCCN` and answer again.
Resp: no (0)

Req: `CCCCCCCCCCCCCCCCN(CCCCCCCCCCCCCCCC)[C@@H](CO)C(=O)NCCN` , same question.
Resp: yes (1)

Req: Another compound to look at: `CCCCCCCCCCCCCCCCCC[N+](C)(CCCCCCCCCCCCCCCCCC)[C@@H](CO)C(=O)NCCCCCN`
Resp: yes (1)

Req: Note, next up: `CCCCCCCC/C=C\CCCCCCCCN(CCCCCCCC/C=C\CCCCCCCC)[C@@H](CO)C(=O)NCCN`
Resp: yes (1)

Req: Can you handle `CCCCCCCC/C=C\CCCCCCCCN(CCCCCCCC/C=C\CCCCCCCC)[C@@H](CO)C(=O)NCCCCN` next?
Resp: no (0)

Req: // query: `CCCCCCCCCCCCCCCC[N+](C)(CCCCCCCCCCCCCCCC)[C@@H](CO)C(=O)NCCCCCN`
Resp: no (0)

Req: Let us now turn to `CCCCCCCC/C=C\CCCCCCCC[N+](C)(CCCCCCCC/C=C\CCCCCCCC)[C@@H](CO)C(=O)NCCCN`
Resp: yes (1)

Req: Also check `CCCCCCCCCCCCCCN(CCCCCCCCCCCCCC)[C@@H](CO)C(=O)NCCCN`
Resp: no (0)

Req: And what about the compound `CCCCCCCC/C=C\CCCCCCCC[N+](C)(CCCCCCCC/C=C\CCCCCCCC)[C@@H](CO)C(=O)NCCN` ?
Resp: no (0)
